Test system: Escherichia coli 10536
Assay: Minimum inhibitory concentration (agar 2-fold dilution)
Type: cell-based
Settings: Escherichia coli; E. coli 10536; Muller-Hinton agar, 37° C., 20 hours; read-out: Minimum Inhibitory Concentration
Reported MIC values for the following molecules.
quantity: MIC (µg/mL)

>>> measuredresult("Nc1cc[n+](C/C=C/C2=C(C(=O)[O-])N3C(=O)[C@@H](NC(=O)/C(=N\\O[C@@H](C(=O)O)c4ccc(O)c(O)c4)c4csc(N)n4)[C@H]3SC2)cn1 [Compound I-2b]")
0.13
>>> measuredresult("Cc1c(N)nc[n+](C/C=C/C2=C(C(=O)[O-])N3C(=O)[C@@H](NC(=O)/C(=N\\O[C@H](C(=O)O)c4ccc(O)c(O)c4)c4csc(N)n4)[C@H]3SC2)c1N [Compound I-4a]")
0.008
>>> measuredresult("Nc1nc(/C(=N/O[C@H](C(=O)O)c2ccc(O)c(O)c2)C(=O)N[C@@H]2C(=O)N3C(C(=O)[O-])=C(/C=C/C[n+]4cnc(N)c5c4CCC5)CS[C@H]23)cs1 [Compound I-3a]")
0.008
>>> measuredresult("Nc1nc(/C(=N/O[C@@H](C(=O)O)c2ccc(O)c(O)c2)C(=O)N[C@@H]2C(=O)N3C(C(=O)[O-])=C(/C=C/C[n+]4cnc(N)c5c4CCC5)CS[C@H]23)cs1 [Compound I-3b]")
0.13
>>> measuredresult("Nc1cc[n+](C/C=C/C2=C(C(=O)[O-])N3C(=O)[C@@H](NC(=O)/C(=N\\O[C@H](C(=O)O)c4ccc(O)c(O)c4)c4csc(N)n4)[C@H]3SC2)cn1 [Compound I-2a]")
0.016
